- System: ACHN renal
- Procedure Text: NCI-60 one-dose screen, 48 h (100 = growth as untreated, 0 = no growth, -100 = all killed)
- Experimental Parameters: 10 µM unless noted
This is part of a sample that, as a whole, favours compounds with a hit. Of some 83,000 tested, about 20% had one in any assay.
Doc: threshold 80% (exclusive). Items with growth beneath it return 1.0; others return 0.0.

| Smiles Record | Group Label |
| --- | --- |
| Nc1c(C(=O)Nc2cccc(Cl)c2)sc2ncc(Cl)cc12 | 1.0 |
| CC(=O)Oc1ccccc1C(=O)/C=C/c1cccc([N+](=O)[O-])c1 | 1.0 |
| NC1(N)C=CC2=C(C=C1)C1(N)C3=C(C=CC(N)(N)C=C3)N2C2(N)C3=C(C=CC(N)(N)C=C3)N1C1=C2C=CC(N)(N)C=C1 | 0.0 |
| Cc1nn(-c2ccc(Cl)cc2)c(=O)n1CCn1cnc2ccccc21 | 0.0 |
| OCCNc1nc(Nc2ccc(Cl)c(Cl)c2)nc2ccccc12 | 1.0 |
